Cited source: patent US20140161799A1

Measured mean fluorescence relative to chimeric antibody, listed per entry.
- SYSTEM TESTED: T1, human CD47 (human, UniProt Q08722 19-323)
- T1 construct: whole, on cells; also called CD47 on human red blood cells
- T1 sequence (Q08722 19-323): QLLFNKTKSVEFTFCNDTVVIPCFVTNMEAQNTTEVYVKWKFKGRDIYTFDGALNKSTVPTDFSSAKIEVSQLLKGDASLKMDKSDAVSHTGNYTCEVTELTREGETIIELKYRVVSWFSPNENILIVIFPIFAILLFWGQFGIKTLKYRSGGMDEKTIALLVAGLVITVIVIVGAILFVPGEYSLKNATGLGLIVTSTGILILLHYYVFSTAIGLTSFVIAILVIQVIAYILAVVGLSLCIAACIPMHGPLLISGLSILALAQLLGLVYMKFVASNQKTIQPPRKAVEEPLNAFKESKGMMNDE
- RUN DESCRIPTION: flow cytometry on RBCs, antibody 10 ng/ml
EXPERIMENTAL ENDPOINT: mean fluorescence relative to chimeric antibody

{"BINDER": "pVxK7b-037-hum08-LC/pVxK7b-037-hum08-HC (antibody, human IgG1, V domains shown, Full-length human IgG1/kappa in CHO supernatant; Variable entries end within framework 4 (...FGQG / ...WGQG); also called Clone 8) VH: QITLKESGPTLVKPTQTLTLTCTFSGYTFTNYYVFWIRQSPSRGLEWLGDINPVNGDTNFNEKFKNRFTISRDNAKNSLYLQMNSLRAEDTAVYYCARGGYTMDYWGQG VL: DIVMTQTPLSLPVTPGEPASISCRSSQSLVHSNGNTYLHWYQQKPGKAPKLLIYKVSYRFSGVPDRFSGSGSGTDFTLKISRVEAEDVGVYYCSQNTHVPRTFGQG", "OBSERVED VALUE": "0.7 fold of chimera"}
{"BINDER": "pVxK7b-037-hum16-LC/pVxK7b-037-hum16-HC (antibody, human IgG1, V domains shown, Full-length human IgG1/kappa in CHO supernatant; Variable entries end within framework 4 (...FGQG / ...WGQG); also called Clone 16) VH: QVQLQESGPGLVKPSQTLSLTCTVSGYTFTNYYVFWVRQARGQRLEWIGDINPVNGDTNFNEKFKNRVTISADKSISTAYLQWSSLKASDTAMYYCARGGYTMDYWGQG VL: AIQLTQSPSSLSASVGDRVTITCRSSQSLVHSNGNTYLHWYQQKPGQAPRLLIYKVSYRFSGVPDRFSGSGSGTDFTLKISRVEAEDVGVYYCSQNTHVPRTFGQG", "OBSERVED VALUE": "0.9 fold of chimera"}
{"BINDER": "pVxK7b-037-hum18-LC/pVxK7b-037-hum18-HC (antibody, human IgG1, V domains shown, Full-length human IgG1/kappa in CHO supernatant; Variable entries end within framework 4 (...FGQG / ...WGQG); also called Clone 18) VH: EVQLVQSGAEVKKPGESLRISCKGSGYTFTNYYVFWIRQSPSRGLEWLGDINPVNGDTNFNEKFKNRVTITADKSTSTAYMELSSLRSEDTAVYYCARGGYTMDYWGQG VL: EIVLTQSPATLSVSPGERATLSCRSSQSLVHSNGNTYLHWYQQKPGQAPRLLIYKVSYRFSGVPSRFSGSGSGTDFTFTISSLEAEDAATYYCSQNTHVPRTFGQG", "OBSERVED VALUE": "1 fold of chimera"}
